Tested on: T47D
Assay: MTT cell viability assay, T47D
Format: cell-based, human
Details: Table 3, 48 h, peptide alone, range from GraphPad fit, read-out: IC50 range against T47D
pIC50: −log10 of the molar value. No end group written: not given here.
Kindly state pIC50 for each of the entries shown.

# returns recorded pIC50 (system: T47D) for NGSIPATWASL [Peptide U3]
3.21 to 3.36

# returns recorded pIC50 (system: T47D) for HDNTAHPAPDS [Peptide U9]
1.94 to 2.58

# returns recorded pIC50 (system: T47D) for NEEENTHISTR [Peptide U4]
2.98 to 3.14

# returns recorded pIC50 (system: T47D) for SSQGYGSSPSPTPR [Peptide U1]
3.11 to 3.34

# returns recorded pIC50 (system: T47D) for TFPCSASNK [Peptide U8]
1.95 to 2.70

# returns recorded pIC50 (system: T47D) for AVGSASPTL [Peptide U6]
1.86 to 2.60

# returns recorded pIC50 (system: T47D) for DEEENTHISTR [Peptide U5]
2.74 to 3.06

# returns recorded pIC50 (system: T47D) for NQADSSPSS [Peptide U2]
2.70 to 2.94

# returns recorded pIC50 (system: T47D) for NCSIHGDIPAY [Peptide U7]
3.15 to 3.31

---

System: MCF-7
Conditions: read-out: IC50 value against MCF-7, single agent; Table 4/Figure 2; MTT, 48 h; U3, U7 40–1500 µM or mitotane alone; mean ± SD, n = 3
No end group written: not given here.
property: IC50 (µM)
Please give a number only; it is taken to be in µM.

Form field: reported IC50 of NGSIPATWASL [Peptide U3]
556

Form field: reported IC50 of NCSIHGDIPAY [Peptide U7]
554

---

Tested on: HepG2
Details: 48 h
No end group written: not given here.
Kindly state pIC50 for each of the entries shown.
In textbook form, pIC50 equals minus log to base ten of the concentration in mol/L.

Form field: reported pIC50 of NCSIHGDIPAY [Peptide U7]
3.28

Form field: reported pIC50 of NGSIPATWASL [Peptide U3]
3.25
